Where do the numbers come from? From paper PMC10786891.

Molecular target: T1, EsCas13d, nuclease-dead (Eubacterium siraeum, UniProt B0MS50, R295A;H300A;R849A;H854A)
T1 sequence: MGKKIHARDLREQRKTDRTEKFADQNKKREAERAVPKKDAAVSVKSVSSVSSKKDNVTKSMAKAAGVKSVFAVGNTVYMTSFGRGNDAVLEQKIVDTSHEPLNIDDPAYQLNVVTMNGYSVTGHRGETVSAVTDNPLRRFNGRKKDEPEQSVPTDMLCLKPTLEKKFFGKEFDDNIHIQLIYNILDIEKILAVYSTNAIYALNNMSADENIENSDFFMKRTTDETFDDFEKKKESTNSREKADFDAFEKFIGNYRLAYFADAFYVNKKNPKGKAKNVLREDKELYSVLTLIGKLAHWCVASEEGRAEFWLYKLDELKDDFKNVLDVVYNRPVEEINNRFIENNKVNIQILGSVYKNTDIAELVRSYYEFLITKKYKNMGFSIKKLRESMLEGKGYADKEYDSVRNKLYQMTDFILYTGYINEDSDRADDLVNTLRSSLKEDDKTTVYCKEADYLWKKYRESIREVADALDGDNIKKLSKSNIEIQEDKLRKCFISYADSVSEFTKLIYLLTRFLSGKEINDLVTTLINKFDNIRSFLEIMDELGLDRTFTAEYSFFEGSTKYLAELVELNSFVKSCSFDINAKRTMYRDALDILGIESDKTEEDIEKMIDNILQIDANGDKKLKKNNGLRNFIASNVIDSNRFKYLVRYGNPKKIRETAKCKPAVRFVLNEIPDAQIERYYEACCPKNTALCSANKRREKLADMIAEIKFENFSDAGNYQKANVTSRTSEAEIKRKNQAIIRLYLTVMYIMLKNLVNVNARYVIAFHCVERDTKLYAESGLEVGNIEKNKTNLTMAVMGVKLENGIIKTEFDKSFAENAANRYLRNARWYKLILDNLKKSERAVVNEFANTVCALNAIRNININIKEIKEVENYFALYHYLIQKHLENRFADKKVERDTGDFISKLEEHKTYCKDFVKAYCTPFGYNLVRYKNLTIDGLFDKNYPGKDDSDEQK
Experiment: crRNA (strand 1, pre-loaded); Mg2+; 40 mM Tris-HCl pH 7.5, 150 mM NaCl, 6 mM MgCl2, 1 mM DTT, 0.1% Tween-20, 0.2 mg/ml BSA; 25 C; 10 min per concentration, then washed
Conditions: tags: His6-TwinStrep-SUMO cleaved; N-terminal SNAP kept (SNAP-Surface 488); label: 3' end held by stalled T7 RNA polymerase
pKd: −log10 of the molar value.

[
  {
    "binder": "target 1 C2U,U11C (mixed) RNA 1: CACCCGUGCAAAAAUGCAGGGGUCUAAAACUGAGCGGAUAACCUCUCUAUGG RNA 2: GGGAAUGGAUCCACAUCUACGAAUUCGUACCAUAGAGAGGCUAUCCGCUUACCGAGAUCGGAAGAGCACACGU",
    "pKd": 8.02
  },
  {
    "binder": "target 1 A1C,U11A (mixed) RNA 1: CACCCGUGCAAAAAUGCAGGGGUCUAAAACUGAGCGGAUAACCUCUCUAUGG RNA 2: GGGAAUGGAUCCACAUCUACGAAUUCGUACCAUAGAGAGGAUAUCCGCUCCCCGAGAUCGGAAGAGCACACGU",
    "pKd": 7.36
  },
  {
    "binder": "target 3 insG 3' of 8,insC 3' of 8 (mixed) RNA 1: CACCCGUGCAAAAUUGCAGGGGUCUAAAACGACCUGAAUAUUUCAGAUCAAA RNA 2: GGGAAUGGAUCCACAUCUACGAAUUCGUUUUUGAUCUGAAAUAUGCUCAGGUCUGCAGAUCGGAAGAGCACACGU",
    "pKd": 7.24
  },
  {
    "binder": "target 3 U2C,A5C (mixed) RNA 1: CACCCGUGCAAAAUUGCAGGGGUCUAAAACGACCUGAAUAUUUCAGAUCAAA RNA 2: GGGAAUGGAUCCACAUCUACGAAUUCGUUUUUGAUCUGAAAUAUUCCGGCCUGCAGAUCGGAAGAGCACACGU",
    "pKd": 6.98
  }
]
